Listed here: items and their measured inhibition.
study-system: Glucose transporter (Leishmania mexicana)
experiment-summary: ST_JUDE_LEISH: Cytotoxicity at 2uM final concentration against transgenic Leishmania Mexicana promastigotes LmGT2 that are glucose transport deficient and complemented with the L. Mexicana glucose transporter 2. Activity is measured by DNA content using SYBR green in vitro
Type: functional
The reply should be a number in %, with the unit left off.

Prompt: Return the recorded inhibition value; entry: `Cc1nc2nc(N)nc(N)c2c(C)c1Cc1cccc(F)c1`
Response: 0.65

Prompt: Return the recorded inhibition value; entry: Cc1ccc(C2(C)CC(C)(C)N(C(=O)COc3ccc4ccccc4c3)c3ccccc32)cc1 (centres undefined)
Response: 1.03

Prompt: Return the recorded inhibition value; entry: `Oc1cc(Nc2ccnc3cc(-c4ccc(CN5CCCCC5)o4)c(Cl)cc23)c(Cl)cc1F`
Response: 1.57

Prompt: Return the recorded inhibition value; entry: `CC(C)Cc1csc(NC(=O)C=Cc2ccco2)c1C(=O)O`
Response: -0.08

Prompt: Return the recorded inhibition value; entry: CC(Cc1ccc(NS(=O)(=O)c2ccc(CC(C)NCCc3cccc(Cl)c3)cc2)cc1)NCCc1cccc(Cl)c1 (centres undefined)
Response: 7.25

Prompt: Return the recorded inhibition value; entry: `CCCNCc1ccc(-c2ccc(CN(CCOC)C(=O)COc3ccccc3Cl)cc2)nc1`
Response: -1.95

Prompt: Return the recorded inhibition value; entry: `COc1ccc(S(=O)(=O)NCCC2CCN(CCCCCNC(=O)C=Cc3ccc(Cl)c(Cl)c3)CC2)cc1`
Response: 1.49

Prompt: Return the recorded inhibition value; entry: CCCCOP(=O)(COc1ccc(CCN(CC(O)COc2cccc3[nH]c4ccccc4c23)CC(O)COc2cccc3[nH]c4ccccc4c23)cc1)C1CCCCC1 (centres undefined)
Response: 0.82

Prompt: Return the recorded inhibition value; entry: `O=C(Nc1cccc2ccccc12)N1CCc2cc3nccc(N4CCN5CCC[C@H]5C4)c3cc21`
Response: 4.23

Prompt: Return the recorded inhibition value; entry: CC(Nc1ccnc2cc(Cl)ccc12)c1ccc(S(N)(=O)=O)cc1 (centres undefined)
Response: 2.92

Prompt: Return the recorded inhibition value; entry: `O=C(NC1CCN(Cc2ccccc2)CC1)c1csc2nc(-c3ccc(Cl)cc3)cn12`
Response: 2.02

Prompt: Return the recorded inhibition value; entry: `O=S(=O)(c1cc2ccccc2s1)N(CCC(O)(C(F)(F)F)C(F)(F)F)Cc1cccc(O)c1`
Response: 1.75

Prompt: Return the recorded inhibition value; entry: `CS(=O)(=O)N(c1ccccc1)c1cc(C(=O)N[C@@H](Cc2ccccc2)[C@H](O)CNC2CC2)cc(N2CCCC2=O)c1`
Response: 4.38

Prompt: Return the recorded inhibition value; entry: `CCOc1ccc2c(c1)N(C(=O)C=Cc1ccccc1)C(C)(C)c1ssc(=S)c1-2`
Response: 0.85

Prompt: Return the recorded inhibition value; entry: NCC1CCCN1Cc1ccc(-c2ccc(-c3nc4cc(C(F)(F)F)ccc4[nH]3)s2)cc1 (centres undefined)
Response: -0.19

Prompt: Return the recorded inhibition value; entry: `CCOc1ccc(C(=O)Nc2ccc(-c3nc4ccccc4[nH]3)cc2)cc1[N+](=O)[O-]`
Response: 1.46

Prompt: Return the recorded inhibition value; entry: COc1ccccc1CC1CCCN(C2CCC(NC(=O)c3cc4ccccc4[nH]3)CC2)C1 (centres undefined)
Response: -0.6

Prompt: Return the recorded inhibition value; entry: O=c1cc(NC[C@H]2CCC[C@@H]2NC2CCCc3c2[nH]c2ccccc32)[nH]c2ccccc12 (some centres undefined)
Response: 5.67

Prompt: Return the recorded inhibition value; entry: `CN(C)CCOc1cc(O)c2c(c1)OC(C)(C)C=C2c1cccs1`
Response: -0.34
